# maps each entry to its normalised response
Tested on: CAL-85-1
Test: normalised response (% of control), CellTox Green; higher = less cell death (100 = DMSO, 0 = benzethonium chloride kill control)
Conditions: incubation time: 72 h
Enter your answer as a number in %; do not include the unit.

>>> measured_number("O=C(Nc1c[nH]nc1-c1nc2ccc(CN3CCOCC3)cc2[nH]1)NC1CC1 [AT9283] (100 nM)")
84.6
>>> measured_number("Cc1nc(Nc2ncc(C(=O)Nc3c(C)cccc3Cl)s2)cc(N2CCN(CCO)CC2)n1 [Dasatinib] (100 nM)")
74
>>> measured_number("O=C1c2c(O)ccc(O)c2C(=O)c2c(NCCNCCO)ccc(NCCNCCO)c21 [Mitoxantrone] (100 nM)")
101
>>> measured_number("Cc1ccc(Nc2nccc(N(C)c3ccc4c(C)n(C)nc4c3)n2)cc1S(N)(=O)=O [Pazopanib] (10000 nM)")
78.9
>>> measured_number("CC[C@@]1(O)C(=O)OCc2c1cc1n(c2=O)Cc2cc3c(CN(C)C)c(O)ccc3nc2-1 [Topotecan] (1000 nM)")
67.8
>>> measured_number("Cc1ccc(Nc2nccc(N(C)c3ccc4c(C)n(C)nc4c3)n2)cc1S(N)(=O)=O [Pazopanib] (1000 nM)")
101
>>> measured_number("Cc1c(Cn2c(C)nc3c(C(=O)O)cc(N4CCOCC4)cc32)cccc1C(F)(F)F (10000 nM)")
78.3
>>> measured_number("CS(=O)(=O)N1CCN(Cc2cc3nc(-c4cccc5[nH]ncc45)nc(N4CCOCC4)c3s2)CC1 [Pictilisib] (100 nM)")
107
>>> measured_number("Cc1cccc(-c2nn3c(c2-c2ccnc4ccc(C(N)=O)cc24)CCC3)n1 [Galunisertib] (100 nM)")
102
>>> measured_number("CC/C(=C(\\c1ccc(O)cc1)c1ccc(OCCN(C)C)cc1)c1ccccc1 [4-hydroxytamoxifen] (1000 nM)")
120

q: Fill in the blank: the reported normalised response of CC(=O)OC[C@H]1O[C@@H]([S-])[C@H](OC(C)=O)[C@@H](OC(C)=O)[C@@H]1OC(C)=O.CCP(CC)CC.[Au+] [Auranofin] (25 nM) is ____.
a: 122

q: Report normalised response for CNC(=O)c1cc(Oc2ccc(NC(=O)Nc3ccc(Cl)c(C(F)(F)F)c3)cc2)ccn1 [Sorafenib] (100 nM) please.
a: 107

q: # lookup: normalised response of C[C@]12O[C@H](C[C@]1(O)CO)n1c3ccccc3c3c4c(c5c6ccccc6n2c5c31)CNC4=O [Lestaurtinib] (10 nM)
a: 96.2

q: I am curious: what normalised response value has been reported for Cc1ccc(Nc2nccc(N(C)c3ccc4c(C)n(C)nc4c3)n2)cc1S(N)(=O)=O [Pazopanib] (100 nM) ?
a: 103

q: Form field: reported normalised response of CCCCC/C=C/C=C1/C(=O)C=C[C@@H]1C/C=C\CCCC(=O)O [15D-PGJ2] (800 nM)
a: 94.3

* * *

System: CAL-51
Test: drug sensitivity score (DSS), CellTiter-Glo (DSS (AUC-based score)); higher = stronger drug effect (viability inhibition or cytotoxicity); extreme values may be limits of the assay
Settings: incubation time: 72 h
reported.metric: drug sensitivity score
Quick one: just the number, no unit, thanks!

The following compounds have reported results that may help.
>>> measured_number("C[C@]12O[C@H](C[C@]1(O)CO)n1c3ccccc3c3c4c(c5c6ccccc6n2c5c31)CNC4=O [Lestaurtinib]")
0.729
>>> measured_number("C[C@]12C=CC(=O)C=C1CC[C@@H]1[C@@H]2[C@@H](O)C[C@@]2(C)[C@H]1CC[C@]2(O)C(=O)CO [Prednisolone]")
0
>>> measured_number("O=S(=O)(c1cccc2cnccc12)N1CCCNCC1 [Fasudil]")
0

q: Consider the compound COc1ccc(-c2cc3c(C)nc(N)nc3n([C@H]3CC[C@H](OCCO)CC3)c2=O)cn1 and give its measured drug sensitivity score.
a: 22.6

q: // drug sensitivity score lookup, key: Nc1ccccc1NC(=O)c1ccc(CNc2nccc(-c3cccnc3)n2)cc1 [Mocetinostat]
a: 8.93

q: Query: drug sensitivity score; subject: Cc1cccc(-c2nn3c(c2-c2ccnc4ccc(C(N)=O)cc24)CCC3)n1 [Galunisertib]
a: 0.026

q: Query (compound): COc1cc(CCc2cc(NC(=O)c3ccc(N4CC(C)NC(C)C4)cc3)n[nH]2)cc(OC)c1 (configuration not stated) [AZD4547] ; field requested: drug sensitivity score
a: 0

* * *

Tested on: CAL-120
Experiment: normalised viability (% of control), CellTiter-Blue; higher = more viable cells (about 100 = DMSO control)
Settings: 10000 nM; incubation time: 72 h
reported.metric: normalised viability (%)
Enter your answer as a number in %; do not include the unit.

>>> measured_number("COc1ccc(-c2cc3c(C)nc(N)nc3n([C@H]3CC[C@H](OCCO)CC3)c2=O)cn1")
11.3
>>> measured_number("CO[C@@H](C(=O)N1Cc2[nH]nc(NC(=O)c3ccc(N4CCN(C)CC4)cc3)c2C1)c1ccccc1")
8.24
>>> measured_number("CS(=O)(=O)N1CCN(Cc2cc3nc(-c4cccc5[nH]ncc45)nc(N4CCOCC4)c3s2)CC1")
20.8

// next entry
q: So what does the record say about normalised viability for C[C@]12C=CC(=O)C=C1CC[C@@H]1[C@@H]2[C@@H](O)C[C@@]2(C)[C@H]1CC[C@]2(O)C(=O)CO ?
a: 86.8

* * *

Tested on: MDA-MB-468
Assay: normalised viability (% of control), CellTiter-Blue; higher = more viable cells (100 = DMSO, 0 = benzethonium chloride kill control)
Conditions: 1 nM; incubation time: 72 h
Entries and their normalised viability
Give your result in % as a bare value.

Examples from the recorded data:
>>> measured_number("O=C(CCBr)N1CCN(C(=O)CCBr)CC1")
95
>>> measured_number("CS(=O)(=O)N1CCN(Cc2cc3nc(-c4cccc5[nH]ncc45)nc(N4CCOCC4)c3s2)CC1")
95.5
>>> measured_number("CCC/C=C/C=C/C(=O)O[C@H]1/C(=C/C(=O)OC)C[C@H]2C[C@H]([C@@H](C)O)OC(=O)C[C@H](O)C[C@@H]3C[C@H](OC(C)=O)C(C)(C)[C@](O)(C[C@@H]4C/C(=C/C(=O)OC)C[C@H](/C=C/C(C)(C)[C@]1(O)O2)O4)O3")
99.1

# ---- query molecule ----
q: Bench note: what normalised viability did O=S(=O)(c1cccc2cnccc12)N1CCCNCC1 show?
a: 102

* * *

Each entry below lists one item and its recorded drug sensitivity score value.
Test system: HCC1143
Test: drug sensitivity score (DSS), CellTiter-Glo (DSS (AUC-based score)); higher = stronger drug effect (viability inhibition or cytotoxicity); extreme values may be limits of the assay
Conditions: incubation time: 72 h
Number only, please.

>>> measured_number("C[C@]12O[C@H](C[C@]1(O)CO)n1c3ccccc3c3c4c(c5c6ccccc6n2c5c31)CNC4=O")
2.04
>>> measured_number("Cc1nc(Nc2ncc(C(=O)Nc3c(C)cccc3Cl)s2)cc(N2CCN(CCO)CC2)n1")
6.57
>>> measured_number("CCN(CC)CCNC(=O)c1c(C)[nH]c(/C=C2\\C(=O)Nc3ccc(F)cc32)c1C")
0
>>> measured_number("CC(=O)OC[C@H]1O[C@@H]([S-])[C@H](OC(C)=O)[C@@H](OC(C)=O)[C@@H]1OC(C)=O.CCP(CC)CC.[Au+]")
5.15
>>> measured_number("C[C@]12C=CC(=O)C=C1CC[C@@H]1[C@@H]2[C@@H](O)C[C@@]2(C)[C@H]1CC[C@]2(O)C(=O)CO")
0
>>> measured_number("Nc1ccccc1NC(=O)c1ccc(CNc2nccc(-c3cccnc3)n2)cc1")
5.67

Please look at the following compound next.
q: Query: drug sensitivity score; subject: CNC(=O)c1cc(Oc2ccc(NC(=O)Nc3ccc(Cl)c(C(F)(F)F)c3)cc2)ccn1
a: 0

* * *

Test system: DU-4475
Test: normalised viability (% of control), CellTiter-Blue; higher = more viable cells (about 100 = DMSO control)
Details: incubation time: 72 h
reported.metric: normalised viability (%)
Write the value in % as a bare number.

Below are worked cases with known answers.
>>> measured_number("Cc1c(CN2CCN(C(=O)[C@H](C)O)CC2)sc2c(N3CCOCC3)nc(-c3cnc(N)nc3)nc12 [GDC-0980] (3000 nM)")
19.4
>>> measured_number("COc1cc(CCc2cc(NC(=O)c3ccc(N4CC(C)NC(C)C4)cc3)n[nH]2)cc(OC)c1 (configuration not stated) [AZD4547] (300 nM)")
97.8
>>> measured_number("O=C(NC[C@H](O)CO)c1ccncc1Nc1ccc(I)cc1F (3000 nM)")
0.63
>>> measured_number("Cc1cccc(-c2nn3c(c2-c2ccnc4ccc(C(N)=O)cc24)CCC3)n1 (300 nM)")
102
>>> measured_number("Nc1nc(=O)c2c([nH]1)NCC(CNc1ccc(C(=O)N[C@@H](CCC(=O)O)C(=O)O)cc1)N2C=O (mixture of isomers) [Folinic acid] (297 nM)")
98.8
>>> measured_number("CS(=O)(=O)N1CCN(Cc2cc3nc(-c4cccc5[nH]ncc45)nc(N4CCOCC4)c3s2)CC1 [GDC-0941] (3000 nM)")
104

Field: next compound
q: Value lookup for normalised viability; key = O=C1c2c(O)ccc(O)c2C(=O)c2c(NCCNCCO)ccc(NCCNCCO)c21 [Mitoxantrone] (300 nM)
a: 9.52

src = the supplement of paper PMC4862054
